tested on: NADP-linked cytosolic ALDH; experiment: NADP-linked cytosolic ALDH assay, L1210/CPA cells; format: biochemical, Murine; details: SDA as substrate; read-out: 50% inhibition at
pIC50: −log10 of the molar value.
MEASURED_PARAMETER: pIC50

Prompt: GET /values?readout=pIC50&system=NADP-linked cytosolic ALDH&item= C=CC=O [Acrolein]
Response: 4.00 to 4.30

* * *

tested on: L1210/0 cells; assay: L1210/0 cell proliferation ([3H]-thymidine incorporation); format: cell-based, Murine; conditions: Mus musculus, L1210/0; [³H]-thymidine incorporation; read-out: mean IC₅₀
MEASURED_PARAMETER: pIC50
Note on units: pIC50 is unitless, being -log10 of a concentration expressed in mol/L.

Prompt: GET /values?readout=pIC50&system=L1210/0 cells&item= O=CCCNCCCCNCCC=O
Response: 5.33

Where do these numbers come from? They come from patent EP0366451A2.
